Biological target: BRD4 (Homo sapiens, UniProt O60885)
Construct: endogenous in cells; host or cells: MDA-MB-231
Assay: BRD4 degradation by Western blot analysis in MDA-MB-231 cells
Assay type: cell-based
Conditions: 1 μM, 24 h, MDA-MB-231 cells
reported-property: Densitometry (% of control), BRD4-immunoreactive band relative to DMSO vehicle

Previously resolved entries follow.
compound: Cc1sc2c(c1C)C(c1ccc(Cl)cc1)=N[C@@H](CC(=O)NCC(=O)NCCOCCOCCOc1cccc3c1C(=O)N(C1CCC(=O)NC1=O)C3=O)c1nnc(C)n1-2 (stereo partly shown) [Compound 31]
endpoint-value: 42,9 % of control
//
compound: Cc1sc2c(c1C)C(c1ccc(Cl)cc1)=N[C@@H](CC(=O)N(C)CC(=O)NCCCCCOc1cccc3c1C(=O)N(C1CCC(=O)NC1=O)C3=O)c1nnc(C)n1-2 (stereo partly shown) [Compound 24]
endpoint-value: 26,4 % of control
//
compound: Cc1sc2c(c1C)C(c1ccc(Cl)cc1)=N[C@@H](CC(=O)N1CCN(CC(=O)NCCOCCOCCOc3cccc4c3C(=O)N(C3CCC(=O)NC3=O)C4=O)CC1)c1nnc(C)n1-2 (stereo partly shown) [Compound 36]
endpoint-value: 64,7 % of control
//
compound: Cc1sc2c(c1C)C(c1ccc(Cl)cc1)=N[C@@H](CC(=O)NCC(=O)NCCOCCOc1cccc3c1C(=O)N(C1CCC(=O)NC1=O)C3=O)c1nnc(C)n1-2 (stereo partly shown) [Compound 30]
endpoint-value: 73,4 % of control
//
compound: Cc1sc2c(c1C)C(c1ccc(Cl)cc1)=N[C@@H](CC(=O)N(C)CC(=O)NCCOCCOc1cccc3c1C(=O)N(C1CCC(=O)NC1=O)C3=O)c1nnc(C)n1-2 (stereo partly shown) [Compound 25]
endpoint-value: 36,3 % of control
//
compound: Cc1sc2c(c1C)C(c1ccc(Cl)cc1)=N[C@@H](CC(=O)N1CCN(CC(=O)NCCCCOc3cccc4c3C(=O)N(C3CCC(=O)NC3=O)C4=O)CC1)c1nnc(C)n1-2 (stereo partly shown) [Compound 33]
endpoint-value: 24,4 % of control
//
compound: Cc1sc2c(c1C)C(c1ccc(Cl)cc1)=N[C@@H](CC(=O)N1CCN(CC(=O)NCCOCCOc3cccc4c3C(=O)N(C3CCC(=O)NC3=O)C4=O)CC1)c1nnc(C)n1-2 (stereo partly shown) [Compound 35]
endpoint-value: 72,1 % of control
//
compound: Cc1sc2c(c1C)C(c1ccc(Cl)cc1)=N[C@@H](CC(=O)N(C)CC(=O)NCCOCCOCCOc1cccc3c1C(=O)N(C1CCC(=O)NC1=O)C3=O)c1nnc(C)n1-2 (stereo partly shown) [Compound 26]
endpoint-value: 70,9 % of control
//
compound: Cc1sc2c(c1C)C(c1ccc(Cl)cc1)=N[C@@H](CC(=O)N(C)CC(=O)NCCCCOc1cccc3c1C(=O)N(C1CCC(=O)NC1=O)C3=O)c1nnc(C)n1-2 (stereo partly shown) [Compound 23]
endpoint-value: 28,2 % of control

// next entry
Which Densitometry (% of control), BRD4-immunoreactive band relative to DMSO vehicle value belongs to Cc1sc2c(c1C)C(c1ccc(Cl)cc1)=N[C@@H](CC(=O)N(C)CC(=O)NCCCOc1cccc3c1C(=O)N(C1CCC(=O)NC1=O)C3=O)c1nnc(C)n1-2 (stereo partly shown) [Compound 22] ?
50,6 % of control
